Reference source: the supplement of paper PMC10307832

Assign relative viability to each entry below.
System: NCI-H2023
Assay: relative viability (nuclei count vs DMSO), 5 days (fraction); higher = more cells survive
Conditions: first compound 0.1265 µM
Numbers only.

[[record]]
compound = "Cc1sc2c(c1C)C(c1ccc(Cl)cc1)=N[C@@H](CC(=O)OC(C)(C)C)c1nnc(C)n1-2 [JQ1] + O=C(CCCCCCC(=O)Nc1ccccc1)NO [Vorinostat] (partner 1 µM)"
meas_value = 0.372

[[record]]
compound = "Cc1sc2c(c1C)C(c1ccc(Cl)cc1)=N[C@@H](CC(=O)OC(C)(C)C)c1nnc(C)n1-2 [JQ1] + CC(C)C[C@H](NC(=O)[C@H](Cc1ccccc1)NC(=O)c1cnccn1)B(O)O [Bortezomib] (partner 0.002 µM)"
meas_value = 0.57

[[record]]
compound = "Cc1sc2c(c1C)C(c1ccc(Cl)cc1)=N[C@@H](CC(=O)OC(C)(C)C)c1nnc(C)n1-2 [JQ1] + Cc1cc(Nc2cc(N3CCN(C)CC3)nc(Sc3ccc(NC(=O)C4CC4)cc3)n2)n[nH]1 [Tozasertib] (partner 0.1 µM)"
meas_value = 0.308

[[record]]
compound = "Cc1sc2c(c1C)C(c1ccc(Cl)cc1)=N[C@@H](CC(=O)OC(C)(C)C)c1nnc(C)n1-2 [JQ1] + N=C(N)NC(=N)NCCc1ccccc1 [Phenformin] (partner 250 µM)"
meas_value = 0.354

[[record]]
compound = "Cc1sc2c(c1C)C(c1ccc(Cl)cc1)=N[C@@H](CC(=O)OC(C)(C)C)c1nnc(C)n1-2 [JQ1] + CC(=O)c1c(C)c2cnc(Nc3ccc(N4CCNCC4)cn3)nc2n(C2CCCC2)c1=O [Palbociclib] (partner 0.5 µM)"
meas_value = 0.281


Please state, for each entry, its recorded relative viability.
1. Cc1sc2c(c1C)C(c1ccc(Cl)cc1)=N[C@@H](CC(=O)OC(C)(C)C)c1nnc(C)n1-2 [JQ1] + Nc1ncn([C@H]2C[C@H](O)[C@@H](CO)O2)c(=O)n1 [Decitabine] (partner 2 µM)
2. Cc1sc2c(c1C)C(c1ccc(Cl)cc1)=N[C@@H](CC(=O)OC(C)(C)C)c1nnc(C)n1-2 [JQ1] + CS(=O)(=O)CCNCc1ccc(-c2ccc3ncnc(Nc4ccc(OCc5cccc(F)c5)c(Cl)c4)c3c2)o1 [Lapatinib] (partner 2 µM)

*A*
1. 0.228
2. 0.463

* * *

Tested on: EPLC-272H
Assay: relative viability (nuclei count vs DMSO), 5 days (fraction); higher = more cells survive
Conditions: first compound 0.08 µM
MEASURED PROPERTY: relative viability
Numbers only.

Reference set, count: 3
[[record]]
molecule = "O=c1[nH]c2ccccc2n1C1CCN(CCCC(c2ccc(F)cc2)c2ccc(F)cc2)CC1 [Pimozide] + Cc1nc(Nc2ncc(C(=O)Nc3c(C)cccc3Cl)s2)cc(N2CCN(CCO)CC2)n1 [Dasatinib] (partner 0.075 µM)"
meas_value = 0.298

[[record]]
molecule = "Cc1cnc(-c2cnc(NCCNc3ccc(C#N)cn3)nc2-c2ccc(Cl)cc2Cl)[nH]1 + Nc1nc2[nH]cc(CCc3ccc(C(=O)N[C@@H](CCC(=O)O)C(=O)O)cc3)c2c(=O)[nH]1 [Pemetrexed] (partner 0.2 µM)"
meas_value = 0.388

[[record]]
molecule = "O=c1[nH]c2ccccc2n1C1CCN(CCCC(c2ccc(F)cc2)c2ccc(F)cc2)CC1 [Pimozide] + C[C@]1(O)C[C@@H](c2nc(-c3ccc4ccc(-c5ccccc5)nc4c3)c3c(N)nccn32)C1 [Linsitinib] (partner 1 µM)"
meas_value = 0.913


Next item in the queue.
*Q* Entry under review: Cc1cnc(-c2cnc(NCCNc3ccc(C#N)cn3)nc2-c2ccc(Cl)cc2Cl)[nH]1 + CC(=O)c1c(C)c2cnc(Nc3ccc(N4CCNCC4)cn3)nc2n(C2CCCC2)c1=O [Palbociclib] (partner 0.5 µM) . Reported relative viability?
*A* 0.345
